These data points were gathered from patent US20230105457A1.

# tested system: T1, HLA-A*0201 molecule expressed on human tumor cell line T2 (human)
# T1 construct: surface HLA-A2 read with anti-HLA-A2 antibody BB7.2-PE by FACS; also called HLA-A2
# protocol text: T2 cell HLA-A2 stabilisation, FACS; peptide at 50 µM
observable: mean relative fluorescence intensity

[
  {
    "binder": "FLPFGFILV (also called candidate peptide) [IL13RA2-B]",
    "mean relative fluorescence intensity": "113 relative (HIV peptide = 100)"
  },
  {
    "binder": "RLSSYLVEI [FOXM1-B]",
    "mean relative fluorescence intensity": "21.3 relative (HIV peptide = 100)"
  },
  {
    "binder": "RVSSYLVPI [FOXM1-H]",
    "mean relative fluorescence intensity": "30.7 relative (HIV peptide = 100)"
  }
]

In the following, a different binder is considered.
mean relative fluorescence intensity lookup needed for YTLGEFLYI [BIRC5-B2] , thanks.
54.4 relative (HIV peptide = 100)
